Entries annotated with measured abundance fitness
B1: Zinc finger homeobox protein 3, residues 2244 to 2299; numbered along this chain, Q15911 (parent)
chain: SSRTRFTDYQLRVLQDFFDANAYPKDDEFEQLSNLLNLPTRVIVVWFQNARQKARK

Variants of: B1
Test: abundance fitness (aPCA) (normalised: wild type 0, dead -1); higher = more abundant; growth selection in yeast, the domain comes from the species named
Conditions: Homo sapiens
Measure: abundance fitness

variant_identifier=D8I measure="abundance fitness" test_value=-0.641
variant_identifier=S33G measure="abundance fitness" test_value=-0.083
variant_identifier=V13I measure="abundance fitness" test_value=-0.359
variant_identifier=Q10T measure="abundance fitness" test_value=-0.714
variant_identifier=T7L measure="abundance fitness" test_value=-0.363
variant_identifier=L38E measure="abundance fitness" test_value=-0.278
variant_identifier=N37A measure="abundance fitness" test_value=-0.096
variant_identifier=F6H measure="abundance fitness" test_value=-0.672
variant_identifier=Y23M measure="abundance fitness" test_value=0.041
variant_identifier=R3W measure="abundance fitness" test_value=0.094

Numbers sourced from the Human Domainome abundance scans (Beltran et al. 2025).
